Test system: RSV A2
experiment.summary: RSV antiviral cytopathic effect (CPE) assay, MTT readout
Assay type: cell-based
test.settings: human respiratory syncytial virus, HEp-2, 120 h; RSV A2 in HEp2 cells, CPE assay, MTT, approx. 5 days; read-out: Activity Range (RSV A2 antiviral EC50), compounds of Table 2
Protocol: Method Q: RSV Antiviral Assay Protocol Compounds of the invention were tested for their antiviral activity against respiratory syncytial virus. Cytopathic effect (CPE) assays were performed essentially as described in the literature (see for example Watanabe et al, 1. Virological Methods, 1994, 48, 257). […] The extent of CPE was determined via metabolism of the vital dye 3-(4,5-dimethylthiaxol-2-yl)-2,5-diphenyltetrazolium bromide (MTT). […] Plates were shaken and the absorbance read at 540 nm. […]
measurement.type: EC50

[[record]]
compound = "O=C(c1ccno1)N1CCN2C(=O)c3ccccc3C12c1ccc(Cl)cc1 (stereo not shown)"
measurement_type = "EC50"
experimental_value = "0.1 to 0.25 µg/mL"


For this compound ( COc1ccc(NC(=O)N2CCN3C(=O)c4ccccc4C23c2ccc(Cl)cc2)cc1 (stereo not shown) ), measured EC50 is 0.1 to 0.25 µg/mL

For this compound ( NCCNc1ccc(C(=O)N2CCN3C(=O)c4ccccc4C23c2ccc(Cl)cc2)cn1 (stereo not shown) ), measured EC50 is 0.25 to 1 µg/mL

For this compound ( O=C1c2ccccc2C2(c3ccc(Cl)cc3)N1CCN2C(=O)c1cccc2c1OCCO2 (stereo not shown) ), measured EC50 is 0.25 to 1 µg/mL

For this compound ( O=C(c1ccc(F)cc1)N1CCN2C(=O)c3ccccc3C12c1ccc(F)cc1 (stereo not shown) ), measured EC50 is 0.25 to 1 µg/mL

For this compound ( O=C(c1cscn1)N1CCN2C(=O)c3ccccc3C12c1ccc(Cl)cc1 (stereo not shown) ), measured EC50 is 0.1 to 0.25 µg/mL

For this compound ( Cn1cc(C(=O)N2CCN3C(=O)c4ccccc4C32c2ccc(Cl)cc2)c(C(F)(F)F)n1 (stereo not shown) ), measured EC50 is < 0.1 µg/mL

* * *

System: RSV A2
experiment.summary: RSV antiviral cytopathic effect (CPE) assay, MTT readout
Assay type: cell-based
test.settings: human respiratory syncytial virus, HEp-2, 120 h; RSV A2 in HEp2 cells, CPE assay, MTT, approx. 5 days; read-out: Activity Range (RSV A2 antiviral EC50), compounds of Table 2
Reported EC50 is given for each of the following compounds.

Below, 2 compounds whose answers are already recorded.
[[record]]
compound = "O=C(c1ccc(F)cc1)N1CCN2C(=O)c3ccccc3C12c1ccc(OCC2CC2)cc1 (centres unmarked) [Compound 267]"
experimental_value = "< 0.1 µg/mL"

[[record]]
compound = "O=C(CC1CCCC1)N1CCN2C(=O)c3ccccc3C12c1ccc(Cl)cc1 (centres unmarked) [Compound 216]"
experimental_value = "0.25 to 1 µg/mL"


For this compound ( Cc1noc(C)c1COc1ccc(C23c4ccccc4C(=O)N2CCN3C(=O)c2ccc(F)cc2)cc1 (centres unmarked) [Compound 263] ), measured EC50 is 0.1 to 0.25 µg/mL

For this compound ( CC(=O)COc1ccc(C23c4ccccc4C(=O)N2CCN3C(=O)c2ccc(F)cc2)cc1 (centres unmarked) [Compound 268] ), measured EC50 is 0.25 to 1 µg/mL

For this compound ( COc1ccc(CNC(=O)N2CCN3C(=O)c4ccccc4C23c2ccc(C)cc2)cc1 (centres unmarked) [Compound 179] ), measured EC50 is 0.25 to 1 µg/mL

For this compound ( O=C(CSc1ccccn1)N1CCN2C(=O)c3ccccc3C12c1ccc(Cl)cc1 (centres unmarked) [Compound 299] ), measured EC50 is 0.25 to 1 µg/mL
